Could you please report measured residual activity for the items listed next?
- Test system: Isocitrate dehydrogenase [NADP] cytoplasmic (Homo sapiens), O75874 [R132C]
- Sequence (O75874 whole entry R132C): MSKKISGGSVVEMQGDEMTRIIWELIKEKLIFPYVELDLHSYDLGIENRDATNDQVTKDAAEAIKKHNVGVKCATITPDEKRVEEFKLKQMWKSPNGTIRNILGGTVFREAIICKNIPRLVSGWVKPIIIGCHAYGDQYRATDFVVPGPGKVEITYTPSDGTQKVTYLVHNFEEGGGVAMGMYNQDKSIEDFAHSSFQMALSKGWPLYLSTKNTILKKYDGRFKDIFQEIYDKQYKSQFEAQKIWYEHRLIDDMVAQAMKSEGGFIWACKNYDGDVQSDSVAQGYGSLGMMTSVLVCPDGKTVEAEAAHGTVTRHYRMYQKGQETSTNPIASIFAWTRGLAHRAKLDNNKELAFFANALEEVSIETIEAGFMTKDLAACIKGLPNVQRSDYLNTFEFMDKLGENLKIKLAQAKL
- METHOD_SUMMARY: Inhibition of IDH1 R132C mutant (unknown origin) expressed in HEK293T cells assessed as reduction in D-2-HG levels at 50 uM after 72 hrs relative to control; values are per cent of control
API: value field is a number in %; no unit string.

Summary for this compound, CC(C)[C@H]1COC(=O)N1c1cncc(N[C@@H](C)c2ccc(-c3ccccc3F)cc2)n1 : residual activity is 44.1

Looking up CC(C)[C@H]1COC(=O)N1c1cncc(N[C@@H](C)c2ccc(-c3cccc(F)c3)cc2)n1 , I found its residual activity recorded as 50.6

COc1cccc(-c2ccc([C@H](C)Nc3cncc(N4C(=O)OC[C@@H]4C(C)C)n3)cc2)c1 yielded residual activity of 41.7

The measured residual activity associated with CC(C)[C@H]1COC(=O)N1c1cncc(N[C@@H](C)c2ccc(-c3ccccc3)cc2)n1 reads 108

For CC(C)[C@H]1COC(=O)N1c1cncc(N[C@@H](C)c2ccc(-c3ccc(F)cc3)cc2)n1 the compound record lists residual activity as 51.3

residual activity reported for this compound COc1ccccc1-c1ccc([C@H](C)Nc2cncc(N3C(=O)OC[C@@H]3C(C)C)n2)cc1 : 28.2

Data point: COc1ccc(-c2ccc([C@H](C)Nc3cncc(N4C(=O)OC[C@@H]4C(C)C)n3)cc2)cc1 ; residual activity = 51.7

Please fill in: residual activity reported for Cc1ccccc1-c1ccc([C@H](C)Nc2cncc(N3C(=O)OC[C@@H]3C(C)C)n2)cc1 = 29.1

Value of measured residual activity for the entry Cc1ccc(-c2ccc([C@H](C)Nc3cncc(N4C(=O)OC[C@@H]4C(C)C)n3)cc2)cc1 : 54.8

Note to self: residual activity recorded for Cc1cccc(-c2ccc([C@H](C)Nc3cncc(N4C(=O)OC[C@@H]4C(C)C)n3)cc2)c1 was 29.7

Looking up CC(C)[C@H]1COC(=O)N1c1ccnc(N[C@@H](C)c2ccc(-c3ccccn3)cc2)n1 , I found its residual activity recorded as 29.7

For record Cc1noc(C)c1-c1ccc([C@H](C)Nc2cncc(N3C(=O)OC[C@@H]3C(C)C)n2)cc1 the listed residual activity is 30.2

// sample CC(C)[C@H]1COC(=O)N1c1cncc(N[C@@H](C)c2ccc(-c3ccc(C(F)(F)F)cc3)cc2)n1 , its residual activity was 27.4

Value of residual activity reported for the compound CC(C)[C@H]1COC(=O)N1c1cncc(N[C@@H](C)c2ccc(-c3ccc4ccccc4c3)cc2)n1 is 73.9

====

- METHOD_SUMMARY: Cytotoxicity against HEK293T cells harboring WT-IDH1 assessed as cell survival at 10 uM after 72 hrs by CellTiter-Glo assay relative to control
- Assay type: cell-based, HEK-293T
- TEST_PARAMETERS: human, read-out: Survival
QUANTITY_KIND: viability at 72 h, 10 µM (%)
Numeric only. Scale: %

Please fill in: viability at 72 h, 10 µM reported for COc1ccccc1-c1ccc([C@H](C)Nc2cncc(N3C(=O)OC[C@@H]3C(C)C)n2)cc1 = 89.8

====

- Tested on: Isocitrate dehydrogenase [NADP] cytoplasmic (Homo sapiens), O75874 [R132C]
- METHOD_SUMMARY: Inhibition of IDH1 R132C mutant (unknown origin) expressed in HEK293T cells assessed as reduction in D-2-HG levels at 10 uM after 72 hrs relative to control; values are per cent of control
Provide the reported residual activity of each item.

The measured residual activity associated with CC(C)[C@H]1COC(=O)N1c1cncc(N[C@@H](C)c2ccc(-c3ccc(F)cc3)cc2)n1 reads 39%

Lab note: COc1ccccc1-c1ccc([C@H](C)Nc2cncc(N3C(=O)OC[C@@H]3C(C)C)n2)cc1 gave residual activity of 40.6%

Data point: CC(C)[C@H]1COC(=O)N1c1cncc(N[C@@H](C)c2ccc(-c3ccccc3)cc2)n1 ; residual activity = 50.4%

Value of measured residual activity for the entry COc1ccc(-c2ccc([C@H](C)Nc3cncc(N4C(=O)OC[C@@H]4C(C)C)n3)cc2)cc1 : 51.3%

GET /value?item= Cc1noc(C)c1-c1ccc([C@H](C)Nc2cncc(N3C(=O)OC[C@@H]3C(C)C)n2)cc1 &field=residual activity returns 54.1%

Documented residual activity of CC(C)[C@H]1COC(=O)N1c1cncc(N[C@@H](C)c2ccc(-c3ccc4ccccc4c3)cc2)n1 : 71.3%

In plain terms, COc1cccc(-c2ccc([C@H](C)Nc3cncc(N4C(=O)OC[C@@H]4C(C)C)n3)cc2)c1 has a documented residual activity of 86%

Memo: CC(C)[C@H]1COC(=O)N1c1cncc(N[C@@H](C)c2ccc(-c3ccccc3F)cc2)n1 , reported residual activity: 89.9%
